Target: Ole1 (Saccharomyces cerevisiae, UniProt P21147)
Construct: expressed in transfected cells; host or cells: S. cerevisiae ole1Δ strain (W303 pdr1Δ pdr3Δ background), plasmid pRS316 with TDH3 promoter and CYC1 terminator
Assay: Growth inhibition of yeast strain expressing Ole1 as sole desaturase
Type: cell-based
Conditions: yeast strain expressing Ole1 as sole desaturase
Method: Strain oleΔ (yeast ole1 deletion mutant) was constructed by deleting OLE1 with NAT-MX6 in BY4741, amplifying the deletion cassette from the genomic DNA of the resulting strain with primers flanking the ORF by 1000 bp upstream and downstream, transforming the resulting deletion cassette into W303 pdr1Δ pdr3Δ, and plating transformants on YPD media containing G418 (200 μg/mL) and nourseothricin ([…]) with 0.01% TWEEN®-20 and 0.5 mM oleic and palmitoleic acids. […]
Criterion: OLE1 % Max Inhibition meeting or surpassing 8%. Met: 1. Not met: -1.

Answer whether OLE1 % Max Inhibition of `CCn1nc2cc(-c3noc(C4CCN(C(=O)OC(C)(C)C)CC4)n3)ccc2c1C` is greater than or equal to 8%. 1

Answer whether OLE1 % Max Inhibition of Cc1nn(C)c2cc(-c3noc(C4CCN(C(=O)C(C)N5Cc6ccccc6C5=O)CC4)n3)ccc12 (centres unmarked) is greater than or equal to 8%. -1

Answer whether OLE1 % Max Inhibition of O=C(C1CC(=O)N(c2cccc(Cl)c2)C1)N1CCC(c2nc(N3CCOCC3)no2)CC1 (centres unmarked) is greater than or equal to 8%. 1

Answer whether OLE1 % Max Inhibition of `Cn1c(=O)n(C)c2cc(-c3noc(C4CCN(C(=O)CNC(=O)c5ccccn5)CC4)n3)ccc21` is greater than or equal to 8%. -1

Answer whether OLE1 % Max Inhibition of `CC(C)n1ncc2ccc(-c3noc(N4CCN(C(=O)OC(C)(C)C)CC4)n3)cc21` is greater than or equal to 8%. 1

Answer whether OLE1 % Max Inhibition of O=C(C1CC(=O)N(c2cccc(Cl)c2)C1)N1CCC(c2nc(Cl)no2)CC1 (centres unmarked) is greater than or equal to 8%. 1

Answer whether OLE1 % Max Inhibition of `Cc1nn(C)c2cc(-c3noc(C4CCN(C(=O)CNC(=O)c5ccc(C#N)cc5)CC4)n3)ccc12` is greater than or equal to 8%. -1

====

Molecular target: Ole1 (Saccharomyces cerevisiae)
Construct: expressed in transfected cells; host or cells: S. cerevisiae ole1Δ strain (W303 pdr1Δ pdr3Δ background), plasmid pRS316 with TDH3 promoter and CYC1 terminator
Assay: Growth inhibition of yeast strain expressing Ole1 as sole desaturase
Assay type: cell-based
Conditions: yeast strain expressing Ole1 as sole desaturase
Experimental: Strain oleΔ (yeast ole1 deletion mutant) was constructed by deleting OLE1 with NAT-MX6 in BY4741, amplifying the deletion cassette from the genomic DNA of the resulting strain with primers flanking the ORF by 1000 bp upstream and downstream, transforming the resulting deletion cassette into W303 pdr1Δ pdr3Δ, and plating transformants on YPD media containing G418 (200 μg/mL) and nourseothricin ([…]) with 0.01% TWEEN®-20 and 0.5 mM oleic and palmitoleic acids. […]
measurement_name: OLE1 % Max Inhibition (%)
Your answer should be a plain number; it is taken to be in %.

Bench note: what OLE1 % Max Inhibition did `CC(C)c1ccc(C(=O)N2CCC(c3nc(N4CC5(COC5)C4)no3)CC2)cc1` show? 86.4

Bench note: what OLE1 % Max Inhibition did `O=C(NCC(=O)N1CCC(c2nc(-c3ccccc3F)no2)CC1)c1ccccc1` show? 107.35

Bench note: what OLE1 % Max Inhibition did CCOc1cnc(-c2noc(C3CCN(C(=O)C4CC(=O)N(c5ccccc5)C4)CC3)n2)cc1OC (stereo not drawn) show? 87.29

Bench note: what OLE1 % Max Inhibition did `Cc1nn(C)c2cc(-c3noc(N4CCN(C(=O)[C@H]5CC(=O)N(c6ccccc6)C5)CC4)n3)cnc12` show? 13.06

Bench note: what OLE1 % Max Inhibition did `Cc1nn(C)c2nc(-c3noc(C4CCN(C(=O)CNC(=O)c5ccccc5)CC4)n3)ccc12` show? 101.68

Bench note: what OLE1 % Max Inhibition did `Cc1c2cc(-c3noc(C4CCN(C(=O)c5ccc(C(C)C)cc5)CC4)n3)ccc2nn1C` show? 89.1

Bench note: what OLE1 % Max Inhibition did Cc1ccc(-c2nc(C3CCN(C(=O)C4CC(=O)N(c5ccc(C)c(C)c5)C4)CC3)no2)cc1 (stereo not drawn) show? 98.10

Bench note: what OLE1 % Max Inhibition did `COc1ccc(-c2noc(C3CCN(C(=O)CNC(=O)c4ccccc4OC)CC3)n2)cc1OC` show? 100.96

Bench note: what OLE1 % Max Inhibition did `CCOc1cnc(-c2noc(C3CCN(C(=O)CNC(=O)c4ccccc4)CC3)n2)nc1OC` show? 105.73

Bench note: what OLE1 % Max Inhibition did `CCOc1ccc(-c2noc(C3CCN(C(=O)CN4Cc5ccccc5C4=O)CC3)n2)nc1OC` show? 1.11

Bench note: what OLE1 % Max Inhibition did COc1cccc(-c2noc(C3CC(=O)N(c4ccc(C)c(C)c4)C3)n2)c1 (stereo not drawn) [Compound 489] show? 94.30

Bench note: what OLE1 % Max Inhibition did O=C(C1CC(=O)N(c2cccc(Cl)c2)C1)N1CCC(c2nc(N3CCC4(CC3)COC4)no2)CC1 (stereo not drawn) show? 79.2

Bench note: what OLE1 % Max Inhibition did `COc1cc(-c2noc(C3CCN(C(=O)CNC(=O)c4ccccc4)CC3)n2)ccc1OC1CC1` show? 88.69

Bench note: what OLE1 % Max Inhibition did COc1cccc(-c2noc(C3CC(=O)N(c4ccc(C)c(C)c4)C3)n2)c1 (stereo not drawn) [Compound 490] show? 96.38

Bench note: what OLE1 % Max Inhibition did `COc1ccnc(C(=O)NCC(=O)N2CCC(c3nc(-c4ccc5c(C)nn(C)c5c4)no3)CC2)c1` show? 5.16

Bench note: what OLE1 % Max Inhibition did `CC(C)n1ncc2ccc(-c3noc(C4CCN(C(=O)c5cccc(F)c5)CC4)n3)cc21` show? 7.14

Bench note: what OLE1 % Max Inhibition did `O=C(c1ccccc1)N1CCC(c2nc(N3CC4(CCCO4)C3)no2)CC1` show? 81.5

Bench note: what OLE1 % Max Inhibition did `Cc1nn(C)c2cc(-c3noc(C4CCN(C(=O)CNC(=O)c5ccccc5)CC4)n3)cnc12` show? 96.83

Bench note: what OLE1 % Max Inhibition did Cc1nn(C)c2cc(-c3noc(C4CCN(C(=O)C5CC(=O)N(c6ccccc6C#N)C5)CC4)n3)ccc12 (stereo not drawn) show? 67.97

Bench note: what OLE1 % Max Inhibition did `COc1ccc(-c2coc(C3CCN(C(=O)CNC(=O)c4ccccc4)CC3)n2)cc1OC` show? 9.99

Bench note: what OLE1 % Max Inhibition did COc1ccc(-c2noc(C3CCN(C(=O)[C@H](C)NC(=O)c4ccccc4)CC3)n2)cc1OC (single isomer, unassigned) show? 105.25

Bench note: what OLE1 % Max Inhibition did COc1ccc(-c2noc(C3CCN(C(=O)[C@@H](C)NC(=O)c4ccccc4)CC3)n2)cc1OC (single isomer, unassigned) show? 2.91

Bench note: what OLE1 % Max Inhibition did CCOc1ccc(-c2noc(N3CCC(C(=O)N4CCN(C)C(c5ccccc5)C4)CC3)n2)cc1OC (stereo not drawn) show? 5.55

Bench note: what OLE1 % Max Inhibition did `Cc1nn(C)c2cc(-c3noc(C4CCN(C(=O)c5cc(F)ccc5C(F)(F)F)CC4)n3)ccc12` show? 13.6

Bench note: what OLE1 % Max Inhibition did `Cn1c(=O)[nH]c2ccc(-c3noc(C4CCN(C(=O)CNC(=O)c5ccccc5)CC4)n3)cc21` show? 100.35

Bench note: what OLE1 % Max Inhibition did `CCN(Cc1nc(-c2ccc(OC)c(OC)c2)no1)C(=O)Cc1ccccc1` show? 106.45

Bench note: what OLE1 % Max Inhibition did `COc1ccccc1C(=O)NCC(=O)N1CCC(c2nc(-c3ccc4c(C)nn(C)c4c3)no2)CC1` show? 2.37

Bench note: what OLE1 % Max Inhibition did `COc1ccc(-c2noc(CCNC(=O)COc3cc(O)c4c(c3)OC(C)(C)CC4=O)n2)cc1OC` show? 103.51

Bench note: what OLE1 % Max Inhibition did COc1ccc(-c2noc(C3CCN(C(=O)CNC(c4ccccc4)C(F)(F)F)CC3)n2)cc1OC (stereo not drawn) show? 76.89

Bench note: what OLE1 % Max Inhibition did `Cc1nn(C)c2cc(-c3noc(C4CCN(C(=O)[C@H]5CCN(C(=O)c6ccccc6)C5)CC4)n3)ccc12` show? 29.21

====

Target: Ole1 (Saccharomyces cerevisiae, UniProt P21147)
Construct: expressed in transfected cells; host or cells: S. cerevisiae ole1Δ strain (W303 pdr1Δ pdr3Δ background), plasmid pRS316 with TDH3 promoter and CYC1 terminator
Sequence (P21147 1-510): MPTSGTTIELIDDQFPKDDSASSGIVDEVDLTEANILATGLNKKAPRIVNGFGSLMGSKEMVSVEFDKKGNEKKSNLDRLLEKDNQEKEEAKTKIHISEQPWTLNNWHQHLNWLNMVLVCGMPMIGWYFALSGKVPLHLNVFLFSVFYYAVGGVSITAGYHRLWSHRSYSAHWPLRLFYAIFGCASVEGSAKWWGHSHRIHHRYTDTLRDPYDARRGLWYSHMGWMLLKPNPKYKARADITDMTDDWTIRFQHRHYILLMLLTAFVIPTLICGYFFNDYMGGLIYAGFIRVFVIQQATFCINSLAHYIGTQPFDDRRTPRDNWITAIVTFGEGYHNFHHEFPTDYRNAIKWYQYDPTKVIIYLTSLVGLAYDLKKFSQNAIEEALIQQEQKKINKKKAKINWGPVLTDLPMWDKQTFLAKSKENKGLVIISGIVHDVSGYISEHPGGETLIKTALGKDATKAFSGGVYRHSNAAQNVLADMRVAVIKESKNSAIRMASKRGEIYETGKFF
Assay: Growth inhibition of yeast strain expressing Ole1 as sole desaturase
Type: cell-based
Conditions: yeast strain expressing Ole1 as sole desaturase
measurement_name: OLE1 % Max Inhibition (%)
Your answer should be a plain number; it is taken to be in %.

Bench note: what OLE1 % Max Inhibition did Cc1nn(C)c2cc(-c3noc(C4CCN(C(=O)C5CC(=O)N(c6ccccn6)C5)CC4)n3)ccc12 (stereo not shown) [Compound 195] show? 3.86

Bench note: what OLE1 % Max Inhibition did Cc1nn(C)c2cc(-c3noc(N4CCN(C(=O)c5cc(F)ccc5C(F)(F)F)CC4)n3)ccc12 [Compound 293] show? 66.4

Bench note: what OLE1 % Max Inhibition did Cn1c(=O)n(C)c2cc(-c3noc(C4CCN(C(=O)C5CC(=O)N(c6ccccc6)C5)CC4)n3)ccc21 (stereo not shown) [Compound 123] show? 3.12

Bench note: what OLE1 % Max Inhibition did CC(C)n1cc(-c2noc(C3CCN(C(=O)C4CC(=O)N(c5cccc(Cl)c5)C4)CC3)n2)cn1 (stereo not shown) [Compound 338] show? 85.2

Bench note: what OLE1 % Max Inhibition did COc1ccc(-c2noc(C3CCN(C(=O)c4ccc(C(C)C)cc4)CC3)n2)cc1OC [Compound 127] show? 99.27

Bench note: what OLE1 % Max Inhibition did Cc1nn(C)c2cc(-c3nsc(C4CCN(C(=O)OC(C)(C)C)CC4)n3)ccc12 [Compound 300] show? 79.7

Bench note: what OLE1 % Max Inhibition did CCN1C(=O)COc2ccc(-c3nc(C(C)c4ccccc4)no3)cc21 (stereo not shown) [Compound 160] show? 71.55

Bench note: what OLE1 % Max Inhibition did Cc1cc(N2CC(C(=O)N3CCC(c4nc(-c5ccc6c(C)nn(C)c6c5)no4)CC3)CC2=O)ccn1 (stereo not shown) [Compound 183] show? 101.71

Bench note: what OLE1 % Max Inhibition did O=C(c1ccccc1)N1CCC(c2nc(Cl)no2)CC1 [Compound 351] show? 68.60

Bench note: what OLE1 % Max Inhibition did COc1ccc(-c2noc(C3CCN(CCNC(=O)c4ccccc4)CC3)n2)cc1OC [Compound 32] show? 108.22

Bench note: what OLE1 % Max Inhibition did CCOc1ccc(-c2noc(C3CCN(C(=O)CN4Cc5ccccc5C4=O)CC3)n2)cc1OC [Compound 106] show? 35.35

Bench note: what OLE1 % Max Inhibition did CC(C)c1ccc(C(=O)N2CCC(c3nc(C(=O)Nc4ccnn4C)no3)CC2)cc1 [Compound 287] show? 93.89

Bench note: what OLE1 % Max Inhibition did Cc1nn(C)c2ccc(-c3noc(C4CCN(C(=O)c5ccc(C(C)C)cc5)CC4)n3)cc12 [Compound 297] show? 42.0

Bench note: what OLE1 % Max Inhibition did COc1ccc(-c2nsc(C3CCN(C(=O)CNC(=O)c4ccccc4)CC3)n2)cc1OC [Compound 35] show? 3.66

Bench note: what OLE1 % Max Inhibition did O=C(C1CC(=O)N(c2ccccc2)C1)N1CCC(c2nc(N3CC4(COC4)C3)no2)CC1 (stereo not shown) [Compound 231] show? 29.53

Bench note: what OLE1 % Max Inhibition did CCN1C(=O)COc2ccc(-c3noc(C4(c5ccc(OC)cc5)CC4)n3)cc21 [Compound 491] show? 107.15
